Entries and their logP
test: log P (Table 1); type: physicochemical
Could you keep your reply to the number by itself?

Some solved entries appear below for comparison.
Cc1nc2ccc(N(Cc3ccccc3Cl)C(=O)c3ccncc3)cc2c(=O)n1Cc1ccc(-c2ccccc2-c2nnn[nH]2)cc1 :: 3.1
CCCCCN(C(=O)c1ccc(F)cc1)c1ccc2nc(CCC)n(Cc3ccc(-c4ccccc4-c4nn[nH]n4)cc3)c(=O)c2c1 :: 5.2

API: the following record is the query input.
Task item: Quick check: logP of CCCc1nc2ccc(N(CC(=O)O)C(=O)c3ccccc3)cc2c(=O)n1Cc1ccc(-c2ccccc2-c2nnn[nH]2)cc1 ?
Reply: 2.1

====

assay: log P (Table 1); assay type: physicochemical
Rule for this label: 1 means logP is less than 4; 0 means logP is at least 4.

Task item: API: query returns whether the molecule falls strictly under 4 in logP. Query: CCCc1nc2ccc(N(Cc3ccccn3)C(=O)Oc3ccccc3)cc2c(=O)n1Cc1ccc(-c2ccccc2-c2nn[nH]n2)cc1
Reply: 1

Task item: API: query returns whether the molecule falls strictly under 4 in logP. Query: CCCc1nc2ccc(N(CC)C(=O)c3ccco3)cc2c(=O)n1Cc1ccc(-c2ccccc2-c2nnn[nH]2)cc1
Reply: 1

Task item: API: query returns whether the molecule falls strictly under 4 in logP. Query: CCCCOC(=O)N(CCCC)c1ccc2nc(CCC)n(Cc3ccc(-c4ccccc4-c4nn[nH]n4)cc3)c(=O)c2c1
Reply: 0

Task item: API: query returns whether the molecule falls strictly under 4 in logP. Query: CCCc1nc2ccc(N(Cc3ccncc3)C(=O)OCCOC)cc2c(=O)n1Cc1ccc(-c2ccccc2-c2nn[nH]n2)cc1
Reply: 1

Task item: API: query returns whether the molecule falls strictly under 4 in logP. Query: CCc1nc2ccc(N(Cc3ccccc3I)C(=O)c3ccccc3)cc2c(=O)n1Cc1ccc(-c2ccccc2-c2nn[nH]n2)cc1
Reply: 0

Task item: API: query returns whether the molecule falls strictly under 4 in logP. Query: CCCc1nc2ccc(N(CC(C)C)C(=O)c3ccccc3)cc2c(=O)n1Cc1ccc(-c2ccccc2-c2nnn[nH]2)cc1
Reply: 0

====

Entries and their logP
assay: log P (Table 1); assay type: physicochemical

Some solved entries appear below for comparison.
CCCCN(C(=O)c1ccc(F)cc1)c1ccc2nc(CCC)n(Cc3ccc(-c4ccccc4-c4nn[nH]n4)cc3)c(=O)c2c1 [Example 44] :: 4.7
CCCc1nc2ccc(N(Cc3ccccc3)C(=O)N(C)CC)cc2c(=O)n1Cc1ccc(-c2ccccc2-c2nn[nH]n2)cc1 [Example 30] :: 4.3
CCCc1nc2ccc(N(Cc3ccccn3)C(=O)c3ccncc3)cc2c(=O)n1Cc1ccc(-c2ccccc2-c2nn[nH]n2)cc1 [Example 145] :: 2.7
CCCc1nc2ccc(N(Cc3ccccc3)C(=O)c3ccc(C(=O)O)cc3)cc2c(=O)n1Cc1ccc(-c2ccccc2-c2nn[nH]n2)cc1 [Example 180] :: 2.9

Task item: Quick check: logP of CCCc1nc2ccc(N(Cc3ccncc3)C(=O)c3ccccc3)cc2c(=O)n1Cc1ccc(-c2ccccc2-c2nn[nH]n2)cc1 [Example 138] ?
Reply: 3.4

Task item: Quick check: logP of CCCOC(=O)N(Cc1ccncc1)c1ccc2nc(CCC)n(Cc3ccc(-c4ccccc4-c4nn[nH]n4)cc3)c(=O)c2c1 [Example 156] ?
Reply: 3.8

====

experiment: log P (Table 1); type: physicochemical
Label Fulfilled when logP is at or above 4; otherwise label Not fulfilled.

CCCCCN(C(=O)c1cccnc1)c1ccc2nc(CCC)n(Cc3ccc(-c4ccccc4-c4nn[nH]n4)cc3)c(=O)c2c1 [Example 72] :: Fulfilled
CCCc1nc2ccc(N(Cc3ccccc3)C(=O)c3ccccc3OC)cc2c(=O)n1Cc1ccc(-c2ccccc2-c2nn[nH]n2)cc1 [Example 126] :: Fulfilled
COCc1nc2ccc(N(C)C(=O)OCC(C)C)cc2c(=O)n1Cc1ccc(-c2ccccc2-c2nn[nH]n2)cc1 [Example 161] :: Not fulfilled
CCCc1nc2ccc(N(Cc3ccc(F)cc3)C(=O)N(C)C(C)C)cc2c(=O)n1Cc1ccc(-c2ccccc2-c2nn[nH]n2)cc1 [Example 174] :: Fulfilled

# next molecule below
Task item: Dear colleague, could you confirm whether CCCc1nc2ccc(N(Cc3ccccn3)C(=O)c3ccco3)cc2c(=O)n1Cc1ccc(-c2ccccc2-c2nn[nH]n2)cc1 [Example 148] has logP at or above 4?
Reply: Not fulfilled

====

assay: log P (Table 1); type: physicochemical
assay_metric: logP
Could you keep your reply to the number by itself?

CCCc1nc2ccc(N(Cc3ccccn3)C(=O)N(C)C(C)C)cc2c(=O)n1Cc1ccc(-c2ccccc2-c2nn[nH]n2)cc1 :: 3.7
CCCc1nc2ccc(N(Cc3ccccc3)C(=O)c3ccccc3)cc2c(=O)n1Cc1ccc(-c2ccccc2-c2nn[nH]n2)cc1 :: 4.5
CCCCCN(C(=O)c1ccccc1)c1ccc2nc(CCC)n(Cc3ccc(-c4ccccc4S(=O)(=O)NC(=O)c4ccccc4)cc3)c(=O)c2c1 :: 5.5

Task item: Quick check: logP of CCCc1nc2ccc(N(Cc3ccccc3)C(=O)c3ccncc3)cc2c(=O)n1Cc1ccc(-c2ccccc2-c2nn[nH]n2)cc1 ?
Reply: 3.7

Task item: Quick check: logP of CCCc1nc2ccc(N(CCCC(=O)O)C(=O)c3ccccc3)cc2c(=O)n1Cc1ccc(-c2ccccc2-c2nnn[nH]2)cc1 ?
Reply: 2.3

Task item: Quick check: logP of CCCc1nc2ccc(N(CCC)C(=O)c3ccc(F)cc3)cc2c(=O)n1Cc1ccc(-c2ccccc2-c2nn[nH]n2)cc1 ?
Reply: 4.3

====

test: log P (Table 1); assay type: physicochemical
assay_metric: log P
Could you keep your reply to the number by itself?

CCCc1nc2ccc(N(Cc3ccccc3)C(=O)c3ccccn3)cc2c(=O)n1Cc1ccc(-c2ccccc2-c2nn[nH]n2)cc1 :: 3.7
CCc1nc2ccc(N(CC=C(C)C)C(=O)c3ccccc3)cc2c(=O)n1Cc1ccc(-c2ccccc2-c2nn[nH]n2)cc1 :: 4.2
Cc1nc2ccc(N(Cc3ccccc3)C(=O)c3ccccc3)cc2c(=O)n1Cc1ccc(-c2ccccc2-c2nnn[nH]2)cc1 :: 3.5
CCc1nc2ccc(N(Cc3ccccc3)C(=O)c3ccncc3)cc2c(=O)n1Cc1ccc(-c2ccccc2-c2nn[nH]n2)cc1 :: 3.4
CC(C)c1nc2ccc(N(Cc3ccccc3)C(=O)c3ccccc3)cc2c(=O)n1Cc1ccc(-c2ccccc2-c2nnn[nH]2)cc1 :: 4.5

API: the following record is the query input.
Task item: Quick check: log P of CCc1nc2ccc(N(Cc3ccccc3)C(=O)c3cccs3)cc2c(=O)n1Cc1ccc(-c2ccccc2-c2nn[nH]n2)cc1 ?
Reply: 4.1

====

assay: log P (Table 1); type: physicochemical
assay_metric: logP
Could you keep your reply to the number by itself?

Some solved entries appear below for comparison.
CCCCN(C(=O)c1ccc(O)cc1)c1ccc2nc(CCC)n(Cc3ccc(-c4ccccc4-c4nn[nH]n4)cc3)c(=O)c2c1 :: 4.2
CCc1nc2ccc(N(Cc3ccc(I)cc3)C(=O)c3ccccc3)cc2c(=O)n1Cc1ccc(-c2ccccc2-c2nnn[nH]2)cc1 :: 5

API: the following record is the query input.
Task item: Quick check: logP of CCCOC(=O)N(Cc1ccc(N)cc1)c1ccc2nc(CCC)n(Cc3ccc(-c4ccccc4-c4nn[nH]n4)cc3)c(=O)c2c1 ?
Reply: 3.9

====

assay: log P (Table 1); assay type: physicochemical
Entries and their logP
Could you keep your reply to the number by itself?

CCCCCN(C(=O)c1ccc(Cl)cc1)c1ccc2nc(COC)n(Cc3ccc(-c4ccccc4-c4nnn[nH]4)cc3)c(=O)c2c1 [Example 121] :: 4.6

Task item: Quick check: logP of CCCCCN(C(=O)c1ccccc1)c1ccc2nc(CCC)n(Cc3ccc(-c4ccccc4-c4nn[nH]n4)cc3)c(=O)c2c1 [Example 33] ?
Reply: 5.1

Task item: Quick check: logP of CC(C)c1nc2ccc(N(Cc3ccccc3Cl)C(=O)C3CC3)cc2c(=O)n1Cc1ccc(-c2ccccc2-c2nn[nH]n2)cc1 [Example 94] ?
Reply: 4.8

Task item: Quick check: logP of CCCc1nc2ccc(N(Cc3ccccn3)C(=O)c3ccccc3)cc2c(=O)n1Cc1ccc(-c2ccccc2-c2nn[nH]n2)cc1 [Example 137] ?
Reply: 3.4

Task item: Quick check: logP of CCCc1nc2ccc(N(CCC)C(=O)c3ccc(OCc4ccccc4)cc3)cc2c(=O)n1Cc1ccc(-c2ccccc2-c2nnn[nH]2)cc1 [Example 129] ?
Reply: 5.5

Task item: Quick check: logP of CCCc1nc2ccc(N(Cc3ccc(C(=O)O)cc3)C(=O)c3ccccc3)cc2c(=O)n1Cc1ccc(-c2ccccc2-c2nn[nH]n2)cc1 [Example 182] ?
Reply: 2.4

====

test: log P (Table 1); assay type: physicochemical
Entries and their logP
Could you keep your reply to the number by itself?

CCCc1nc2ccc(N(Cc3ccccc3)C(=O)c3ccccc3Oc3ccccc3)cc2c(=O)n1Cc1ccc(-c2ccccc2-c2nn[nH]n2)cc1 [Example 178] :: 4.2

Task item: Quick check: logP of CCCc1nc2ccc(N(Cc3ccccc3)C(=O)c3cccnc3)cc2c(=O)n1Cc1ccc(-c2ccccc2-c2nnn[nH]2)cc1 [Example 134] ?
Reply: 3.7

Task item: Quick check: logP of CCCCCN(C(=O)c1ccc(OP(=O)(O)O)cc1)c1ccc2nc(CCC)n(Cc3ccc(-c4ccccc4-c4nn[nH]n4)cc3)c(=O)c2c1 [Example 146] ?
Reply: 3.4

Task item: Quick check: logP of CCCc1nc2ccc(N(CCOC)C(=O)c3ccncc3)cc2c(=O)n1Cc1ccc(-c2ccccc2-c2nnn[nH]2)cc1 [Example 119] ?
Reply: 3

Task item: Quick check: logP of CCCc1nc2ccc(N(Cc3ccc(O)cc3)C(=O)c3ccccc3)cc2c(=O)n1Cc1ccc(-c2ccccc2-c2nn[nH]n2)cc1 [Example 179] ?
Reply: 3.6

Task item: Quick check: logP of CCCc1nc2ccc(N(Cc3ccccc3)C(=O)Cn3ccnc3)cc2c(=O)n1Cc1ccc(-c2ccccc2-c2nn[nH]n2)cc1 [Example 132] ?
Reply: 3.6

Task item: Quick check: logP of CCc1nc2ccc(N(Cc3ccccc3)C(=O)c3ccco3)cc2c(=O)n1Cc1ccc(-c2ccccc2-c2nnn[nH]2)cc1 [Example 122] ?
Reply: 3.9

Task item: Quick check: logP of CCCc1nc2ccc(N(Cc3ccccc3)C(=O)c3ccc(O)cc3)cc2c(=O)n1Cc1ccc(-c2ccccc2-c2nn[nH]n2)cc1 [Example 147] ?
Reply: 4

Data origin: patent US5385894A
